protocol description: Toxicity: perished animals/tested animals
Assay type: in vivo
assay setup: 640 mg./kg
measured attribute: Perished animals/tested animals

[Q] Which Perished animals/tested animals is reported for this compound? CCC1(c2ccccc2)C(=O)NC(=O)NC1=O [Phenobarbital, reference compound]
[A] 10/10

[Q] // same read-out, input: CCC(O)(c1ccccc1)c1cccc(C(F)(F)F)c1 (stereo not drawn) [E 15, 3-Trifluoromethyl-α-ethyl-benzhydrol]
[A] 0/10

[Q] // same read-out, input: CCC(O)(c1ccccc1)c1cccc(Cl)c1 (stereo not drawn) [E 9, 3-chloro-α-ethyl-benzhydrol]
[A] 0/10

[Q] // same read-out, input: CCC(O)(c1ccccc1)c1ccc(Cl)cc1Cl (stereo not drawn) [E 11, 2,4-dichloro-α-ethyl-benzhydrol]
[A] 0/10

###

Test system: hexobarbital oxidase
protocol description: Enzyme-inducing potency: in vivo hexobarbital oxidase activity (duration of hexobarbital narcosis)
Design: species or system Female Wistar rats
assay setup: 40 mg./kg. single dosage, 24 hours before hexobarbital
Please respond with reported Sleeping period ± standard error for every item in the list.

[Q] Which Sleeping period ± standard error is reported for this compound? CCC(O)(c1ccccc1)c1ccc(Cl)cc1Cl (stereo not drawn) [E 11, 2,4-dichloro-α-ethyl-benzhydrol]
[A] 13.0 ± 1.2

[Q] // same read-out, input: CCC(O)(c1ccccc1)c1cc(C)ccc1C (stereo not drawn) [E 20, 2,5-dimethyl-α-ethyl-benzhydrol]
[A] 13.0 ± 1.2

[Q] // same read-out, input: CCC(O)(c1ccccc1)c1cccc(C(F)(F)F)c1 (stereo not drawn) [E 15, 3-Trifluoromethyl-α-ethyl-benzhydrol]
[A] 8.8 ± 0.9

[Q] // same read-out, input: CCC(O)(c1ccccc1)c1cccc(Cl)c1 (stereo not drawn) [E 9, 3-chloro-α-ethyl-benzhydrol]
[A] 12.4 ± 1.2

[Q] // same read-out, input: CCC1(c2ccccc2)C(=O)NC(=O)NC1=O [Phenobarbital, reference compound]
[A] 12.5 ± 1.2

###

Tested on: hexobarbital oxidase
protocol description: Enzyme-inducing potency: in vivo hexobarbital oxidase activity (duration of hexobarbital narcosis)
Parameters: species or system Female Wistar rats
assay setup: 20 mg./kg. single dosage, 24 hours before hexobarbital
measured attribute: Sleeping period ± standard error
Reply with the value as a number alone.

[Q] Which Sleeping period ± standard error is reported for this compound? CCC(O)(c1ccccc1)c1cccc(C(F)(F)F)c1 (stereo not drawn) [E 15, 3-Trifluoromethyl-α-ethyl-benzhydrol]
[A] 10.6

[Q] // same read-out, input: CCC1(c2ccccc2)C(=O)NC(=O)NC1=O [Phenobarbital, reference compound]
[A] 14.0

[Q] // same read-out, input: CCC(O)(c1ccccc1)c1ccc(Cl)cc1Cl (stereo not drawn) [E 11, 2,4-dichloro-α-ethyl-benzhydrol]
[A] 15.0

[Q] // same read-out, input: CCC(O)(c1ccccc1)c1cccc(Cl)c1 (stereo not drawn) [E 9, 3-chloro-α-ethyl-benzhydrol]
[A] 13.6

###

System: UDP-glucoronyltransferase
protocol description: UDP-glucuronyltransferase activity of liver tissues removed from pre-treated animals (bilirubin conjugation)
Format: in vivo
assay setup: liver tissues of pre-treated animals incubated with bilirubin
measured attribute: Conjugated bilirubine (µg/g/h)
// note: answer is a bare numeric in µg/g/h

[Q] Query Conjugated bilirubine on UDP-glucoronyltransferase for CCC(O)(c1ccccc1)c1cc(C)ccc1C (stereo not drawn) [E 20, 2,5-dimethyl-α-ethyl-benzhydrol]
[A] 35.1

[Q] // same read-out, input: CCC(O)(c1ccccc1)c1cccc(Cl)c1 (stereo not drawn) [E 9, 3-chloro-α-ethyl-benzhydrol]
[A] 36.7

[Q] // same read-out, input: CCC(O)(c1ccccc1)c1ccc(Cl)cc1Cl (stereo not drawn) [E 11, 2,4-dichloro-α-ethyl-benzhydrol]
[A] 35.7

[Q] // same read-out, input: CCC(O)(c1ccccc1)c1cccc(C(F)(F)F)c1 (stereo not drawn) [E 15, 3-Trifluoromethyl-α-ethyl-benzhydrol]
[A] 37.4
